Recorded OD450 values for a group of binders are listed next.
target: T1, human MSLN-R2-his protein (human, UniProt Q13421 391-486); assay: ELISA on coated MSLN-R2; antibody 10 nM
T1 construct: Region 2 of human mesothelin, made in HEK293E cells, His-tagged; also called human MSLN-R2 protein; hMSLN-R2-his; not shown: His tag
T1 sequence (Q13421 other isoform, or with tags, fused parts or gaps): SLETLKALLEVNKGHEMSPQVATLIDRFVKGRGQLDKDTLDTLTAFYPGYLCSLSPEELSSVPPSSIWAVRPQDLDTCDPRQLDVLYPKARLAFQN

binder	OD450
S009-F8-29.1 (antibody, human IgG1, kappa, V domains shown) VH: QVQLQQSGAELARPGASVKMSCKASGYTFISYTMHWVKQRPGQGLEWIGYINPSSGYTKYNQKFKDKATLTADKSSSTAYMQLNSLTSEDSAVYYCARYYSNPDYYAMDYWGQGTSVTVSS VL: QIVLTQSPAIMSASPGEKVTITCSASSSVSYMHWFQQKPGTSPKLWIYSTSNLASGVPARFSGSGSGTSYSLTISRMEAEDAATYYCQQRSSYPLTFGGGTKLELKR	0.04 OD450
S009-F8-8.22 (antibody, human IgG1, kappa, V domains shown) VH: EVQLQQSGPELVKPGASVKMSCKASGYTFTDYIIHWVKQSHGKSLEWIAYIFPNNGGTGYNQKFRGKATLTVNKSSSTAYMELRSLTSEDSAVYYCARWRLRQYFDVWGTGTTVTVSS VL: DIVMTQSQKFMSTIVGDRVSITCKASQNVGTAVAWYQQKPGQSPKLLIYSASNRYTGVPDRFTGSGSGTDFTLTISNMQSEDLADYFCQQYSSYPLTFGGGTKLEIKR	0.05 OD450

The binder listed as S009-F8-31.22 (antibody, human IgG1, kappa, V domains shown) VH: EVQLVESGGDLVKPGGSLKLSCAASGFTFSTYGMSWVRQTPDKRLEWVATISSGGSYTYYPDSLKGRFTISRDNAKNTLYLQMSSLKSEDTAMYYCARHEGYYYGKDYWGQGTTLTVSS VL: DIVLTQSPATLSVTPGDSVSLSCRASHSISNNLHWYQQKSHESPRLLIKYASQSISGIPSKFSGSGSGTDFTLSINSVETEDFGMYFCQQTNSWPLTFGAGTKLELKR shows OD450 equal to 0.05 OD450

The reported numbers originate from patent US20250250357A1.
